Biological target: CDC25B (Homo sapiens)
Construct: Recombinant forms of the catalytic domains of CDC25A, -B and -C were obtained through the vectors pET28a-CDC25A-cd, pET28a-CDC25B-cd and pET28a-CDC25C-cd; made in house
Sequence (P30305 431-538 limits assumed): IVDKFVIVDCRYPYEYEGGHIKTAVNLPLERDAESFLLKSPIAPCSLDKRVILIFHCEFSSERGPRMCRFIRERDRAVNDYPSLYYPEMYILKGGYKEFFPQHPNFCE
Experiment: Residual phosphatase activity of recombinant CDC25B, fluorimetric OMFP assay
Type: biochemical
Conditions: 0.2 μM inhibitor; 10 nM CDC25B, 25 μM OMFP; read-out: CDC25B residual activity (%) in the presence of [inhibitor]
Categorize each record by its remaining activity at 0.2 µM using low class = under 20%, middle class = from 20% up to 80%, high class = 80% and over

-- ask Hey, which category is O=C(O)C1CCCCC1c1c2ccc(=O)cc-2oc2cc(O)ccc12 (stereo not drawn) in, do you know?
-- reply middle class

-- ask Hey, which category is O=C(O)CCc1c2ccc(=O)cc-2oc2cc(O)ccc12 in, do you know?
-- reply high class

-- ask Hey, which category is O=c1cc2oc3cc(O)c(O)cc3c(-c3ccccc3)c-2cc1O in, do you know?
-- reply low class

-- ask Hey, which category is O=C(O)C1C(c2c3ccc(=O)c(O)c-3oc3c(O)c(O)ccc23)C2(Cl)C(Cl)=C(Cl)C1(Cl)C2(Cl)Cl (stereo not drawn) in, do you know?
-- reply middle class

-- ask Hey, which category is O=c1ccc2c(-c3ccccc3S(=O)(=O)O)c3ccc(O)c(O)c3oc-2c1O in, do you know?
-- reply high class

-- ask Hey, which category is O=C(O)C=Cc1c2ccc(=O)cc-2oc2cc(O)ccc12 in, do you know?
-- reply low class

-- ask Hey, which category is O=C(O)C1[C@H]2C=C[C@H](C2)[C@H]1c1c2ccc(=O)c(O)c-2oc2c(O)c(O)ccc12 (stereo partly drawn) in, do you know?
-- reply middle class

-- ask Hey, which category is Cc1c2ccc(=O)cc-2oc2cc(O)ccc12 in, do you know?
-- reply middle class
